Where do these numbers come from? They come from ChEMBL document CHEMBL3817800.

Biological target: Beta-glucuronidase (Bos taurus, UniProt A3KMY8)
Sequence (A3KMY8 whole entry): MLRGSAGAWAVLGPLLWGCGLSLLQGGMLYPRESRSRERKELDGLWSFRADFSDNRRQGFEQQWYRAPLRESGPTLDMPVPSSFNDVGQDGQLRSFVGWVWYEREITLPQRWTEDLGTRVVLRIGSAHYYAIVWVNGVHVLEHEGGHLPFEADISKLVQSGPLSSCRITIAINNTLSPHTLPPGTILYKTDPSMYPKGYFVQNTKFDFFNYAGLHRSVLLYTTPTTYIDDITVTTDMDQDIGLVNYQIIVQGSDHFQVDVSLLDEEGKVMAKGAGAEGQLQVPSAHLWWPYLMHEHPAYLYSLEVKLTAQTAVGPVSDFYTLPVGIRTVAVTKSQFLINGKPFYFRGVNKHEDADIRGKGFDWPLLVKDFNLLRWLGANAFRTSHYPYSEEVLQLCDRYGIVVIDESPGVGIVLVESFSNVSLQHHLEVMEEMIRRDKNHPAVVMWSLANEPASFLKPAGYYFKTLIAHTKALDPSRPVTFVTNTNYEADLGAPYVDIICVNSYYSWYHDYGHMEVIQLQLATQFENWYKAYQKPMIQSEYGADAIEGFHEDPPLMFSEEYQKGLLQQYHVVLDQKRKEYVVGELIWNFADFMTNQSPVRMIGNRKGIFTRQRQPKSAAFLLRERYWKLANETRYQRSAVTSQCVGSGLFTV
Assay: Inhibition of bovine liver beta-glucuronidase assessed as p-nitrophenol formation preincubated for 30 mins followed by p-nitrophenyl-beta-D-glucuronide addition by spectrophotometric method
Conditions: read-out: IC50
Measurement Kind: IC50 (µM)

{"Molecule": "COC(=O)C1=C(C)NC(=O)NC1c1ccc(Br)cc1 (stereo unspecified)", "Unit Abbreviation": "µM", "IC50": 64.1}
{"Molecule": "COC(=O)C1=C(C)NC(=O)NC1c1ccco1 (stereo unspecified)", "Unit Abbreviation": "µM", "IC50": 40.2}
{"Molecule": "COC(=O)C1=C(C)NC(=O)NC1c1ccc(N(C)C)cc1 (stereo unspecified)", "Unit Abbreviation": "µM", "IC50": 49.2}

[a] COC(=O)C1=C(C)NC(=O)NC1CC(C)C (stereo unspecified)
[b] COC(=O)C1=C(C)NC(=O)NC1c1ccc(Cl)cc1 (stereo unspecified)
*Q* Pick the one with the larger IC50: a vs b Could you answer with the label of the item you picked?
*A* a
(a: 55.2 µM, b: 34.2 µM)
